Where do the numbers come from? From the supplement of paper PMC11208160.

Entries and their recombinant barcode read abundance (log10) values follow.
- procedure text: recombinant barcode read abundance after kanamycin selection (control-corrected) (log10(CPM+1)); higher = more efficient recombination; sequences stand for … in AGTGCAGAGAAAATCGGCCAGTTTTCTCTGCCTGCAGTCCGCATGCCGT…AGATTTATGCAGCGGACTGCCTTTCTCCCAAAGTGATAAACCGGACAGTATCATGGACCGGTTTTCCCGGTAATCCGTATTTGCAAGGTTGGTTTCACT; site = the 11-nt target
measured attribute: recombinant barcode read abundance (log10)

{"macromolecule sequence": "AAGCTAACTTGGGTTCTAACCTGTTGCCT (site AAGCTAACTAG)", "experimental result": 1.77}
{"macromolecule sequence": "TACCCTTCTTGGGTTCTAACCTGTTGCGT (site TACCCTTCTAC)", "experimental result": 1.84}
{"macromolecule sequence": "TCCAGCTCTTGGGTTCTAACCTGTTGCCT (site TCCAGCTCTAG)", "experimental result": 0.631}
{"macromolecule sequence": "AGCAGCTCTTGGGTTCTAACCTGTTGCCT (site AGGAGCGCTAG)", "experimental result": 0.0136}
{"macromolecule sequence": "TAGAGCTCTTGGGTTCTAACCTGTTGCTG (site TAGTGCTCTGA)", "experimental result": 0.0075}
{"macromolecule sequence": "GTAACCGCTTGGGTTCTAACCTGTTGCCT (site GTAACCGCTAG)", "experimental result": 1.64}
{"macromolecule sequence": "AGTCTCGCTTGGGTTCTAACCTGTTGCGG (site AGTGTCGCTCC)", "experimental result": 0.0171}
{"macromolecule sequence": "ACGACCGCTTGGGTTCTAACCTGTTGCCT (site ACGAACGCTAG)", "experimental result": 0.571}
{"macromolecule sequence": "TAGGATACTTGGGTTCTAACCTGTTGCAT (site TAGGATACTGT)", "experimental result": 0.0987}
{"macromolecule sequence": "TGCGTCGCTTGGGTTCTAACCTGTTGCCT (site TGCGTCGCTAG)", "experimental result": 0.687}
{"macromolecule sequence": "GTCCAGTCTTGGGTTCTAACCTGTTGCGT (site GTCCACTCTAA)", "experimental result": 0.0578}
{"macromolecule sequence": "GACCGGACTTGGGTTCTAACCTGTTGCGT (site GACCGGACTAC)", "experimental result": 2.44}
{"macromolecule sequence": "TAAAGTACTTGGGTTCTAACCTGTTGCTT (site TAAGGTACTAA)", "experimental result": 0.017}
{"macromolecule sequence": "CTCTCAGCTTGGGTTCTAACCTGTTGCGA (site CTCTAAACTTC)", "experimental result": 0.15}
{"macromolecule sequence": "GGGTCACCTTGGGTTCTAACCTGTTGCGG (site CCAAAGACTAA)", "experimental result": 0.564}
{"macromolecule sequence": "GACCAGCCTTGGGTTCTAACCTGTTGCTT (site GACCAGCCTAG)", "experimental result": 1.29}
{"macromolecule sequence": "GGGGCACCTTGGGTTCTAACCTGTTGCTA (site TGGGCACCTAA)", "experimental result": 0.128}
{"macromolecule sequence": "AGAGAGTCTTGGGTTCTAACCTGTTGCCT (site AGAAAGTCTAC)", "experimental result": 0.0903}
{"macromolecule sequence": "CCAGGAGCTTGGGTTCTAACCTGTTGCCT (site CCAGCAGCTAG)", "experimental result": 0.103}
{"macromolecule sequence": "GTTACGTCTTGGGTTCTAACCTGTTGCTT (site GTTACGTCTAA)", "experimental result": 0.285}
{"macromolecule sequence": "ACCTGACCTTGGGTTCTAACCTGTTGCCT (site ACCTGTCCTAG)", "experimental result": 0.0737}
{"macromolecule sequence": "ATGGGCCCTTGGGTTCTAACCTGTTGCTG (site ATGGGCCCTGA)", "experimental result": 0.127}
{"macromolecule sequence": "CTCGCTCCTTGGGTTCTAACCTGTTGCCA (site CTCGCTCCTTG)", "experimental result": 0.275}
{"macromolecule sequence": "GGACATTCTTGGGTTCTAACCTGTTGCAT (site GTCCATTCTAT)", "experimental result": 0.0875}
{"macromolecule sequence": "CGTACCTCTTGGGTTCTAACCTGTTGCTT (site CGTACCTCTGA)", "experimental result": 0.406}
{"macromolecule sequence": "ATAAATCCTTGGGTTCTAACCTGTTGCCT (site CTAAATCCTAG)", "experimental result": 0.126}
{"macromolecule sequence": "TAGGCTACTTGGGTTCTAACCTGTTGCAA (site TAGGCTACTAT)", "experimental result": 0.144}
{"macromolecule sequence": "GAGCTACCTTGGGTTCTAACCTGTTGCCG (site GAGCTACCTTG)", "experimental result": 0.214}
{"macromolecule sequence": "AGTGGGACTTGGGTTCTAACCTGTTGCCA (site AGTGGGACTTG)", "experimental result": 1.56}
{"macromolecule sequence": "CTCTAGTCTTGGGTTCTAACCTGTTGCAT (site CTCTAGTCTAT)", "experimental result": 1.8}
{"macromolecule sequence": "CTCTTCGCTTGGGTTCTAACCTGTTGCCT (site CTCTTCACTCG)", "experimental result": 0.208}
{"macromolecule sequence": "GCGCACCCTTGGGTTCTAACCTGTTGCAG (site CTGCACCCTCT)", "experimental result": 0.0518}
{"macromolecule sequence": "CCTTGCCCTTGGGTTCTAACCTGTTGCCT (site CCTTGCCCTAG)", "experimental result": 0.667}
{"macromolecule sequence": "CATTCAACTTGGGTTCTAACCTGTTGCCT (site CATTCAACTAG)", "experimental result": 0.133}

====

- procedure text: recombinant UMI read abundance after kanamycin selection (control-corrected) (log10(CPM+1)); higher = more efficient recombination; extreme values may be limits of the assay; sequences stand for … in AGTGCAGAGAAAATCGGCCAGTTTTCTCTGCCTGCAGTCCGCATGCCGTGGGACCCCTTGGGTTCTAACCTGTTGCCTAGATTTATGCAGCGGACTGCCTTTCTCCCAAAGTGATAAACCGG…AGGTTGGTTTCACT; site = the 11-nt donor
Entries and their recombinant UMI read abundance (log10) values follow.

{"macromolecule sequence": "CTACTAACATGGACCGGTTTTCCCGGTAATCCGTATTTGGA (site CTACTAACTTT)", "recombinant UMI read abundance (log10)": 1.96}
{"macromolecule sequence": "GTACATGCATGGACCGGTTTTCCCGGTAATCCGTATTTGGT (site GTTCATGCTAC)", "recombinant UMI read abundance (log10)": 0.184}
{"macromolecule sequence": "GATTACCCATGGACCGGTTTTCCCGGTAATCCGTATTTGCT (site GATTAACCTAG)", "recombinant UMI read abundance (log10)": 0}
{"macromolecule sequence": "GAAGTATCATGGACCGGTTTTCCCGGTAATCCGTATTTGCA (site ACAGTATCTTG)", "recombinant UMI read abundance (log10)": 1.54}
{"macromolecule sequence": "GGTCCATCATGGACCGGTTTTCCCGGTAATCCGTATTTGTA (site GGTCCACCTTA)", "recombinant UMI read abundance (log10)": 0.0104}
{"macromolecule sequence": "CCTAGTGCATGGACCGGTTTTCCCGGTAATCCGTATTTGGT (site CCTAGTGCTAC)", "recombinant UMI read abundance (log10)": 0.533}
{"macromolecule sequence": "CGTTTTGCATGGACCGGTTTTCCCGGTAATCCGTATTTGCT (site CGTTTTGCTAG)", "recombinant UMI read abundance (log10)": 0.543}

====

- procedure text: recombinant barcode read abundance after kanamycin selection (control-corrected) (log10(CPM+1)); higher = more efficient recombination; sequences stand for … in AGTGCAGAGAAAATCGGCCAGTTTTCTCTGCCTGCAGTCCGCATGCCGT…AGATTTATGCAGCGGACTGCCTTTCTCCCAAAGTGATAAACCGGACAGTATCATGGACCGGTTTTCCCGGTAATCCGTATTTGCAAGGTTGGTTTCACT; site = the 11-nt target
Binary classification by recombinant barcode read abundance (log10), with 0.1 as an inclusive lower bound for 1; all other cases are -1.

{"macromolecule sequence": "AATTGGCCTTGGGTTCTAACCTGTTGCGT (site AATCGGCCTAC)", "class assignment": 1}
{"macromolecule sequence": "AGTCTCGCTTGGGTTCTAACCTGTTGCGG (site AGTATCGCTCC)", "class assignment": -1}
{"macromolecule sequence": "GTAGCCACTTGGGTTCTAACCTGTTGCCT (site GTAGCCACTAG)", "class assignment": 1}
{"macromolecule sequence": "GATAGTCCTTGGGTTCTAACCTGTTGCCT (site GATAGTACTAG)", "class assignment": 1}
{"macromolecule sequence": "CTTACTGCTTGGGTTCTAACCTGTTGCCT (site CTTACGGCTAG)", "class assignment": 1}
{"macromolecule sequence": "CTAGACCCTTGGGTTCTAACCTGTTGCGG (site CTAGACCCTCC)", "class assignment": 1}
{"macromolecule sequence": "GTCTATGCTTGGGTTCTAACCTGTTGCGT (site GTCTATGCTAC)", "class assignment": -1}
{"macromolecule sequence": "CAGGTACCTTGGGTTCTAACCTGTTGCAT (site CAGGTACCTCT)", "class assignment": 1}
{"macromolecule sequence": "CTCGGAACTTGGGTTCTAACCTGTTGCAT (site CTGGGAACTCT)", "class assignment": -1}
{"macromolecule sequence": "CAATCGTCTTGGGTTCTAACCTGTTGCTT (site CAATCGTCTAA)", "class assignment": 1}
{"macromolecule sequence": "CCTTAGACTTGGGTTCTAACCTGTTGCGT (site CCTTAGACTAC)", "class assignment": 1}
{"macromolecule sequence": "GATTGTCCTTGGGTTCTAACCTGTTGCTT (site GGTTGTCCTTA)", "class assignment": 1}
{"macromolecule sequence": "GAGGCTCCTTGGGTTCTAACCTGTTGCGT (site GAAGCTCCTAC)", "class assignment": 1}
{"macromolecule sequence": "GGGCCTACTTGGGTTCTAACCTGTTGCTG (site GGGCCTACTCA)", "class assignment": 1}
{"macromolecule sequence": "GACCCACCTTGGGTTCTAACCTGTTGCCT (site AACCCACCTAG)", "class assignment": 1}
